Test system: Staphylococcus aureus
ASSAY_INFO: Antibacterial activity against methicillin-resistant Staphylococcus aureus ATCC 43300 assessed as reduction in microbial growth measured for 16 to 20 hrs by microdilution assay
Assay type: functional
CONDITION_DESCRIPTION: time 16-20 hrs
PARAMETER: MIC

Which MIC is reported for this compound? [C-]#[N+]c1ccc(NC(=O)CCCCCCCC)cc1
4 µM

Try the compound [C-]#[N+]c1ccc(NC(=O)COc2ccccc2)cc1
2 µM

// same read-out, input: [C-]#[N+]c1ccc(NC(=O)Cc2ccccc2)cc1
> 8 µM

Same for [C-]#[N+]c1ccc(NC(=O)CCc2ccccc2)cc1
8 µM

Field entry: CN(C)[C@@H]1C(O)=C(C(N)=O)C(=O)[C@@]2(O)C(O)=C3C(=O)c4c(O)cccc4[C@@](C)(O)[C@H]3C[C@@H]12 [TETRACYCLINE]
1.13 µM

Proceed to [C-]#[N+]c1ccc(NC(=O)CCc2ccc(Br)cc2)cc1
8 µM

====

ASSAY_INFO: Metabolic stability in human liver microsome assessed as half life at 5 uM incubated for 1 hr in presence of NADPH regenerating system and GSH by LC-UV analysis
Format: ADME
CONDITION_DESCRIPTION: liver microsomes
PARAMETER: half-life at 5 µM (min)
# value in min; strip the unit string

# query: half-life at 5 µM of entry [C-]#[N+]c1ccc(NC(=O)Cc2cccc(Cl)c2)cc1
26.2

====

ASSAY_INFO: Metabolic stability in human liver microsome assessed as intrinsic clearance at 5 uM incubated for 1 hr in presence of NADPH regenerating system and GSH by LC-UV analysis
Assay type: ADME
CONDITION_DESCRIPTION: liver microsomes, read-out: CLH
PARAMETER: microsomal CLint at 5 µM (µL/min/mg)
Answer format: numeric, µL/min/mg implied, no suffix.

Would you kindly share the measured microsomal CLint at 5 µM for [C-]#[N+]c1ccc(NC(=O)Cc2cccc(Cl)c2)cc1 ?
24.4

====

Below is a list of entries, each paired with its recorded MIC value.
Test system: Staphylococcus aureus
ASSAY_INFO: Antibacterial activity against Staphylococcus aureus ATCC 29213 assessed as reduction in microbial growth measured for 16 to 20 hrs by microdilution assay
Format: functional
CONDITION_DESCRIPTION: time 16-20 hrs

Worked examples follow.
>>> print(df.to_string())
                              record_smiles   result
0  CN(C)[C@@H]1C(O)=C(C(N)=O)C(=O)[C@@]2(O)C(O)=C3C(=O)c4c(O)cccc4[C@@](C)(O)[C@H]3C[C@@H]12  1.13 µM
1   [C-]#[N+]c1ccc(NC(=O)Cc2cccc(C#N)c2)cc1     8 µM
2    [C-]#[N+]c1ccc(NC(=O)Cc2cccc(Cl)c2)cc1     8 µM
3              N#Cc1ccc(NC(=O)Cc2ccccc2)cc1   > 8 µM
4         [C-]#[N+]c1ccc(NC(=O)CCCCCCCC)cc1     8 µM

Fill in the blank: the reported MIC of [C-]#[N+]c1ccc(NC(=O)Cc2cccc(OC)c2)cc1 is ____.
8 µM

And then [C-]#[N+]c1ccc(NC(=O)c2ccccc2C(F)(F)F)cc1 , what is it?
> 8 µM
